pKi: −log10 of the molar value. Structures can show the parent of a compound that is named as a salt.
Endpoint: pKi. System: human Adenosine A1 receptor (Homo sapiens). Items follow.
Sequence (P30542 whole entry): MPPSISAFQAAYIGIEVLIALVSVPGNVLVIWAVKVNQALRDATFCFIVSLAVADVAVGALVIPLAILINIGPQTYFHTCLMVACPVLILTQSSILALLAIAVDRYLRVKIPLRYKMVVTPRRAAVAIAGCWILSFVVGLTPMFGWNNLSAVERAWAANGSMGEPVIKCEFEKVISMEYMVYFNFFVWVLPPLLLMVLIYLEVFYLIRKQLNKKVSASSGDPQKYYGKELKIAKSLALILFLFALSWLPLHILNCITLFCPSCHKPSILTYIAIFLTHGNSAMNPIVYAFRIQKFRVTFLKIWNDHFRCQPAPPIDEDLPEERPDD

{"molecule": "Cc1cc(-c2c(-c3cccc(C#N)c3)nn3ccc(NC(=O)N4CCNCC4)nc23)cc(Cl)n1 [Example 31]", "assay_target": "human Adenosine A1 receptor (Homo sapiens)", "pKi": 7.02}
{"molecule": "C=C(C)[C@H](C)NC(=O)c1ccn2nc(-c3cccc(C#N)c3)c(-c3cc(C)nc(C)c3)c2n1 [Example 99]", "assay_target": "human Adenosine A1 receptor (Homo sapiens)", "pKi": 7.00}
{"molecule": "Cc1cc(-c2c(-c3cccc(C#N)c3)nn3ccc(N4CC5CCC(C4)N5C)nc23)cc(Cl)n1 [Example 2.2]", "assay_target": "human Adenosine A1 receptor (Homo sapiens)", "pKi": 8.30}
{"molecule": "Cc1cc(-c2c(-c3cccc(C#N)c3)nn3ccc(N4CC5CCC(C4)O5)nc23)cc(Cl)n1 [Example 2.12]", "assay_target": "human Adenosine A1 receptor (Homo sapiens)", "pKi": 7.06}
{"molecule": "Cc1cc(-c2c(-c3cccc(C#N)c3)nn3ccc(NCC(C)(C)O)nc23)cc(C)n1 [Example 23.2]", "assay_target": "human Adenosine A1 receptor (Homo sapiens)", "pKi": 6.55}
{"molecule": "Cc1cc(-c2c(-c3cccc(C#N)c3)nn3ccc(N4CC(C(=O)O)C4)nc23)cc(Cl)n1 [Example 2.35]", "assay_target": "human Adenosine A1 receptor (Homo sapiens)", "pKi": 6.52}
{"molecule": "Cc1cc(-c2c(-c3cccc(C#N)c3)nn3ccc(NCC(C)(C)N)nc23)cc(Cl)n1 [Example 4.10, trifluoroacetate]", "assay_target": "human Adenosine A1 receptor (Homo sapiens)", "pKi": 7.37}
{"molecule": "Cc1cc(-c2c(-c3cccc(C#N)c3)nn3ccc(NC(=O)CC(C)(C)O)nc23)cc(C)n1 [Example 94.4]", "assay_target": "human Adenosine A1 receptor (Homo sapiens)", "pKi": 7.10}
{"molecule": "c1ccc(CNc2ccn3nc(-c4ccco4)cc3n2)cc1 [Example 48]", "assay_target": "human Adenosine A1 receptor (Homo sapiens)", "pKi": 6.86}
{"molecule": "Cc1cc(-c2c(-c3cccc(C#N)c3)nn3ccc(N(C)C)nc23)cc(Cl)n1 [Example 23.4]", "assay_target": "human Adenosine A1 receptor (Homo sapiens)", "pKi": 6.79}
{"molecule": "Fc1cccc(-c2cc3nc(NCc4ccccc4)ccn3n2)c1 [Example 66]", "assay_target": "human Adenosine A1 receptor (Homo sapiens)", "pKi": 7.23}
{"molecule": "Cc1cc(-c2c(-c3cccc(C#N)c3)nn3ccc(NC4CCN(S(C)(=O)=O)CC4)nc23)cc(Cl)n1 [Example 2.11]", "assay_target": "human Adenosine A1 receptor (Homo sapiens)", "pKi": 6.75}
{"molecule": "Cc1cc(-c2c(-c3cccc(C#N)c3)nn3ccc(C(=O)NC(C)C4(O)COC4)nc23)cc(C)n1 (centres unmarked) [Example 92.6]", "assay_target": "human Adenosine A1 receptor (Homo sapiens)", "pKi": 6.78}
{"molecule": "Cc1cc(-c2c(-c3cccc(C#N)c3)nn3ccc(C(=O)NOCC(C)(C)O)nc23)cc(C)n1 [Example 92.11]", "assay_target": "human Adenosine A1 receptor (Homo sapiens)", "pKi": 6.66}

====

log10(Ki) overview
Sequence of the target: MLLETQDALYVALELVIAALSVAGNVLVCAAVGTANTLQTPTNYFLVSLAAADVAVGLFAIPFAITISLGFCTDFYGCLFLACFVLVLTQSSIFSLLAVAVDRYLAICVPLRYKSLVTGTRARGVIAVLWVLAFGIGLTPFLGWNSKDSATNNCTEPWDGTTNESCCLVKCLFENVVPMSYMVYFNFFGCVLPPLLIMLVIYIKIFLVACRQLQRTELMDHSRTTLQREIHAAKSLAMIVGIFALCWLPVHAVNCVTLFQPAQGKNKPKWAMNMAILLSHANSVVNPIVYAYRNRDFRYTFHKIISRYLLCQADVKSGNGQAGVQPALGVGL
Structures can show the parent of a compound that is named as a salt.
assay_readout: log10(Ki) (log10 of the value in nM)

{"molecule": "Cc1cc(-c2c(-c3cccc(C#N)c3)nn3ccc(N4CCO[C@@H](C(=O)O)C4)nc23)cc(Cl)n1", "log10(Ki)": 1.76}
{"molecule": "Cc1cc(-c2c(-c3cccc(C#N)c3)nn3ccc(C(=O)NCCN4CCN(c5ccccc5)CC4)nc23)cc(Cl)n1", "log10(Ki)": 1.28}
{"molecule": "Fc1cccc(-c2cc3nc(NCc4ccccc4)ccn3n2)c1", "log10(Ki)": 2.58}
{"molecule": "Cc1cc(-c2c(-c3cccc(C#N)c3)nn3ccc(C(=O)N[C@@H]4CN(C)C[C@H]4O)nc23)cc(C)n1", "log10(Ki)": 1.38}
{"molecule": "Cc1cc(-c2c(-c3cccc(C#N)c3)nn3ccc(N[C@@H]4CC[C@@H]4O)nc23)cc(Cl)n1", "log10(Ki)": 1.68}
{"molecule": "Nc1ccn2nc(-c3cccc(F)c3)c(Br)c2n1", "log10(Ki)": 3.59}
{"molecule": "Cc1cccnc1CN1CCN(c2ccn3nc(-c4ccco4)c(C#N)c3n2)CC1", "log10(Ki)": 3.41}
{"molecule": "Cc1cc(-c2c(-c3cccc(C#N)c3)nn3ccc(C(=O)N[C@H]4CCCNC4)nc23)cc(Cl)n1", "log10(Ki)": 2.08}
{"molecule": "Cc1cc(-c2c(-c3cccc(C#N)c3)nn3ccc(C(=O)NS(C)(=O)=O)nc23)cc(Cl)n1", "log10(Ki)": 1.59}
{"molecule": "Cc1cc(-c2c(-c3cccc(C#N)c3)nn3ccc(C(=O)NCC4CCCN(C)C4=O)nc23)cc(C)n1 (stereo not shown)", "log10(Ki)": 1.00}
{"molecule": "Cc1cc(-c2c(-c3cccc(C#N)c3)nn3ccc(NC(N)=O)nc23)cc(Cl)n1", "log10(Ki)": 0.70}
{"molecule": "C=C(C)[C@H](C)NC(=O)c1ccn2nc(-c3cccc(C#N)c3)c(-c3cc(C)nc(C)c3)c2n1", "log10(Ki)": 1.54}
{"molecule": "Cc1cc(-c2c(-c3cccc(C#N)c3)nn3ccc(NC4CCN(C)C(=O)C4)nc23)cc(C)n1 (stereo not shown)", "log10(Ki)": 1.26}
{"molecule": "Cc1cc(-c2c(-c3ccc(F)cc3)nn3ccc(N)nc23)cc(Cl)n1", "log10(Ki)": 1.80}
{"molecule": "Cc1cc(-c2c(-c3cccc(C#N)c3)nn3ccc(O[C@@H]4CCNC4)nc23)cc(Cl)n1 [Example 18, formate]", "log10(Ki)": 1.20}
{"molecule": "Cc1cc(-c2c(-c3cccc(C#N)c3)nn3ccc(N4CCC5(CC4)CNC(=O)C5)nc23)cc(C)n1", "log10(Ki)": 2.58}
{"molecule": "N#Cc1c(-c2ncco2)nn2ccc(NCc3ccccc3)nc12", "log10(Ki)": 3.17}
{"molecule": "Cc1cc(-c2c(-c3cccc(C#N)c3)nn3ccc(C(=O)NCC4(C)CCC(=O)N4)nc23)cc(C)n1 (stereo not shown)", "log10(Ki)": 1.77}
{"molecule": "CC(=O)N1CCC(Nc2ccn3nc(-c4cccc(C#N)c4)c(-c4cc(C)nc(C)c4)c3n2)CC1", "log10(Ki)": 1.70}
{"molecule": "N#Cc1c(-c2ccco2)nn2ccc(NC[C@H]3CNCCO3)nc12 [Example 42.1, hydrochloride]", "log10(Ki)": 3.65}
{"molecule": "Cc1cc(-c2c(-c3cccc(C#N)c3)nn3ccc(C(=O)NCC4(N)CC(F)(F)C4)nc23)cc(Cl)n1", "log10(Ki)": 1.28}
{"molecule": "Cc1cc(-c2c(-c3cccc(C#N)c3)nn3ccc(C(=O)NCC(C)(C)O)nc23)c(F)c(C)n1", "log10(Ki)": 1.58}

====

Biological target: UniProt P29274
Sequence (P29274 whole entry): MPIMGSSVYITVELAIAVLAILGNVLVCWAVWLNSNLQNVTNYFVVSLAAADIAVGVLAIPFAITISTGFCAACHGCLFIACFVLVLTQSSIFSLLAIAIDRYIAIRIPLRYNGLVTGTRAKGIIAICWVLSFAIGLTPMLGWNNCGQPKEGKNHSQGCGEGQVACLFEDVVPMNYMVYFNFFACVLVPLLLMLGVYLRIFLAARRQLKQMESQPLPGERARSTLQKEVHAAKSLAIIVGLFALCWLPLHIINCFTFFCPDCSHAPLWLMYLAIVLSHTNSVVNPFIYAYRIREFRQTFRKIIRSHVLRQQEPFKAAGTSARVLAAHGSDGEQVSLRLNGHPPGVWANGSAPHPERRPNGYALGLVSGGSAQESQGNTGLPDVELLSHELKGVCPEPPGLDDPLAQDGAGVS
Entries annotated with measured Ki

{"molecule": "Cc1cc(-c2c(-c3cccc(C#N)c3)nn3ccc(C(=O)NOCC(C)(C)O)nc23)cc(C)n1 [Example 92.11]", "Ki, nM": 1.5}
{"molecule": "Cc1cc(-c2c(-c3cccc(C#N)c3)nn3ccc(C(=O)NC45CC(O)(C4)C5)nc23)cc(C)n1 [Example 92.2]", "Ki, nM": 1.6}
{"molecule": "Cc1cc(-c2c(-c3cccc(C#N)c3)nn3ccc(N[C@@H]4CCCNC4)nc23)cc(Cl)n1 [Example 4.2]", "Ki, nM": 1.2}

====

Target: human Adenosine A3 receptor (Homo sapiens, UniProt P0DMS8)
Sequence (P0DMS8 whole entry): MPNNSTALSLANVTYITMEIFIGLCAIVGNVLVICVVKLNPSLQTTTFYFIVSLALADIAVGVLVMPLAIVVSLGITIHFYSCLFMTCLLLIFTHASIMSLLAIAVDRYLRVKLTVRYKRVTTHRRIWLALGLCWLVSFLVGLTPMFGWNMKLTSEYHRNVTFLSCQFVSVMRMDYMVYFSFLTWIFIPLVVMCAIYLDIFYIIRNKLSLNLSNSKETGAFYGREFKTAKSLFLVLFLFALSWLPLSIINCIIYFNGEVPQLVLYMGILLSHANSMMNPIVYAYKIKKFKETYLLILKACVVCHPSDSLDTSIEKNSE
Assay: Adenosine receptor TR-FRET binding assay (CA200645 displacement), A3
Structures can show the parent of a compound that is named as a salt.
Measured Ki accompanies every entry in the list below.

{"compound": "Fc1cccc(-c2cc3nc(NCc4ccccc4)ccn3n2)c1", "Ki": "> 1000 nM"}
{"compound": "Cc1cc(-c2c(-c3cccc(C#N)c3)nn3ccc(C(=O)NCC4(C)CCCNC4)nc23)cc(Cl)n1 (centres unmarked)", "Ki": "> 1000 nM"}
{"compound": "Cc1cc(-c2c(-c3cccc(C#N)c3)nn3ccc(C(=O)NC4CCNCC4)nc23)cc(Cl)n1", "Ki": "> 1000 nM"}
{"compound": "Cc1cc(-c2c(-c3cccc(C#N)c3)nn3ccc(C(=O)O)nc23)cc(Cl)n1", "Ki": "> 1000 nM"}
{"compound": "Cc1cc(-c2c(-c3cccc(C#N)c3)nn3ccc(NC4CN5CCC4CC5)nc23)cc(Cl)n1 (centres unmarked)", "Ki": "> 1000 nM"}
{"compound": "Fc1cccc(-c2cc3nc(NCCN4Cc5ccccc5C4)ccn3n2)c1", "Ki": "2900 nM"}
{"compound": "Cc1cc(-c2c(-c3cccc(C#N)c3)nn3ccc(C(=O)NCC(C)(C)O)nc23)cc(C(F)F)n1", "Ki": "1550 nM"}
{"compound": "CC(=O)NC(C)(C)CNC(=O)c1ccn2nc(-c3cccc(C#N)c3)c(-c3cc(C)nc(Cl)c3)c2n1", "Ki": "655 nM"}
{"compound": "Cc1cc(-c2c(-c3cccc(C#N)c3)nn3ccc(C(=O)N[C@@H](C)C(C)(C)O)nc23)cc(CO)n1", "Ki": "> 1000 nM"}
{"compound": "Cc1cc(-c2c(-c3cccc(C#N)c3)nn3ccc(C(=O)NC[C@@H](O)CO)nc23)cc(Cl)n1", "Ki": "> 1000 nM"}
{"compound": "Cc1cc(-c2c(-c3cccc(C#N)c3)nn3ccc(N[C@H](C)[C@H](O)CO)nc23)cc(Cl)n1", "Ki": "> 1000 nM"}
{"compound": "Ic1c(-c2ccco2)nn2ccc(NCc3ccccc3)nc12", "Ki": "135 nM"}
{"compound": "N#Cc1c(-c2ccco2)nn2ccc(NC[C@H]3CCCNC3)nc12 [Example 56, hydrochloride]", "Ki": "> 1000 nM"}
{"compound": "Cc1cc(-c2c(-c3cccc(C#N)c3)nn3ccc(NC(C)CN(C)C)nc23)cc(Cl)n1 (centres unmarked)", "Ki": "> 1000 nM"}
{"compound": "Cc1cc(-c2c(-c3cccc(C#N)c3)nn3ccc(N/C(=N\\C#N)NC(C)C)nc23)cc(Cl)n1", "Ki": "115 nM"}
{"compound": "N#Cc1c(-c2cccc(F)c2)nn2ccc(N3CCN(CCF)CC3)nc12", "Ki": "4920 nM"}
{"compound": "NC(=O)c1c(-c2ccco2)nn2ccc(NCc3ccccc3)nc12", "Ki": "1270 nM"}
{"compound": "N#Cc1c(-c2ccco2)nn2ccc(N3CCN(CCO)CC3)nc12", "Ki": "> 1000 nM"}
{"compound": "Fc1cccc(-c2nn3ccc(Cl)nc3c2Br)c1", "Ki": "> 1000 nM"}
{"compound": "Cc1cc(-c2c(-c3cccc(C#N)c3)nn3ccc(C(=O)N[C@H](C)[C@H](O)CO)nc23)cc(Cl)n1", "Ki": "> 1000 nM"}
{"compound": "Cc1cc(-c2c(-c3cccc(C#N)c3)nn3ccc(C(=N)NC(C)(C)C)nc23)cc(Cl)n1", "Ki": "> 1000 nM"}
{"compound": "Cc1cc(-c2c(-c3ccc(F)cc3)nn3ccc(N)nc23)cc(Cl)n1", "Ki": "536 nM"}
{"compound": "CN1CCC[C@@H]1CNc1ccn2nc(-c3ccco3)c(C#N)c2n1", "Ki": "> 1000 nM"}
{"compound": "C[C@H]1CN(c2ccn3nc(-c4ccco4)c(C#N)c3n2)CCN1C(=O)OC(C)(C)C", "Ki": "2720 nM"}
{"compound": "Nc1ccn2nc(-c3ccco3)c(Br)c2n1", "Ki": "3070 nM"}
{"compound": "Cc1cc(-c2c(-c3cccc(C#N)c3)nn3ccc(N)nc23)cc(N)n1", "Ki": "> 1000 nM"}
{"compound": "Cc1cc(-c2c(-c3cccc(C#N)c3)nn3ccc(NC(=O)N4CC5(COC5)C4)nc23)cc(C)n1", "Ki": "> 1000 nM"}
{"compound": "Cc1cc(-c2c(-c3cccc(C#N)c3)nn3ccc(CN4CCNCC4)nc23)cc(C)n1 [Example 20.1, trifluoroacetate]", "Ki": "> 1000 nM"}
{"compound": "Cc1cc(-c2c(-c3cccc(C#N)c3)nn3ccc(N/C(N)=N\\C#N)nc23)cc(Cl)n1", "Ki": "> 1000 nM"}
